Origin of measurements: PubChem BioAssay

Test: probe aXIP binding to arrayed compounds – biochemical, NeuroSMM set, 635/667 nm fluorescence, primary screen (AID 1119);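 also: probe is the protein aXip251-270 applied at 1 µg/mL to compound-printed slides; binding of probe to printed compounds measured as 667 nm fluorescence plus signal to noise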
Settings: small-molecule microarray, higher = more signal, called active from +8 up or from −8 down
REPORTED_PROPERTY: composite Z-score
# output: bare number, no unit

Q: Which value of composite Z-score has been reported for CC(C)[Si](C#C[Si](C(C)C)(C(C)C)C(C)C)(O[C@H](c1ccccc1)c1cn(Cc2ccccc2)nn1)C(C)C in the records?
A: -0.058

Q: Need composite Z-score, item NC(=O)NCC#Cc1ccc2c(c1)[C@]1(C(=O)N2)[C@H](C(=O)N2CCN(c3ncccn3)CC2)[C@H]2C(=O)O[C@H](c3ccccc3)[C@H](c3ccccc3)N2[C@@H]1c1ccc(O)cc1
A: 0.953

Q: I would be grateful if you could share the reported composite Z-score for CCCC[C@@H](O)C1=C(COC)C[C@H]2C(=O)N(C)C(=O)[C@H]2[C@H]1CO .
A: 0.0275

Q: Name the reported composite Z-score value associated with the molecule CC#CCO[Si](C#Cc1ccccc1)(C(C)C)C(C)C
A: -0.197

Q: # composite Z-score lookup, item COCCCNC(=O)[C@@H]1c2ccccc2C(=O)N(C(C)C)[C@H]1c1ccc(CO)cc1
A: 0.0178

Q: Endpoint output: composite Z-score of CCOC(=O)C[C@H]1[C@H](OC(=O)Cc2ccc3c(c2)OCO3)[C@@H](NC(=O)c2ccc3ccccc3n2)c2cc(OCCCO)ccc2N1C(=O)c1ccc2ccccc2n1 . Value?
A: -0.0069

Q: Name the reported composite Z-score value associated with the molecule COCCOC(=O)N1C(=O)[C@@]2(c3cc(C#CCNC(N)=O)ccc31)[C@H](C(N)=O)[C@H]1C(=O)O[C@H](c3ccccc3)[C@H](c3ccccc3)N1[C@@H]2c1ccccc1OCCO
A: -0.327

====

Assay: resazurin metabolic signal in HepG2 cells – cell-based, resazurin fluorescence, 24 h, PK04 Diversity Set, profiling panel (AID 1172); also: test concentration not given here
Conditions: HepG2 viability, higher = more signal
For each record, write down the corresponding z-score.

Q: Which z-score value belongs to C=C[C@@H](CO)N(Cc1ccc(OC)cc1)S(=O)(=O)c1ccc(Br)cc1 ?
A: 1.04

Q: z-score for CC(C)(C)OC(=O)COc1cccc(C(=O)CCN2CCOCC2)c1 ?
A: 0.454

Q: Find the recorded z-score belonging to CC1=C2[C@@H](CCc3ccccc3)OB(O)C[C@@H]2[C@@H]2C(=O)N(Cc3ccccc3)C(=O)[C@@H]2C1 and report it.
A: -0.819

Q: Value lookup for z-score; key = CC(C)C(CO)N1C(=O)[C@@H]2[C@H]3C(=O)OCC=C[C@H]3OC23C=CCN(c2ccc(Cl)cc2)C(=O)[C@@H]13 (some centres not stated)
A: -0.0883

Q: I am curious: what z-score value has been reported for NCCCCCCNC(=O)[C@@H]1C[C@@H]2C(=O)N[C@@H](CCCCN)C(=O)N2[C@@H]1c1ccc(O)cc1 ?
A: 0.0187

Q: Would you mind telling me what z-score value was observed for COCCOC(=O)N1C(=O)[C@@]2(c3cc(C#CC4=CCCCC4)ccc31)[C@H](C(=O)Nc1nc3ccccc3s1)[C@H]1C(=O)O[C@H](c3ccccc3)[C@H](c3ccccc3)N1[C@@H]2c1ccc(O)cc1 ?
A: -0.263

Q: Quick one: z-score of COc1cc2c(cc1O)C(c1ccc(CN3CCCC3)cc1)N(Cc1cc3c(cc1Br)OCO3)CC2 (configuration not stated) ?
A: 0.686

Q: Item COCC(=C=CC[C@H](O)c1ccc(OCCO)cc1)CCO has what recorded z-score?
A: 0.996

Q: Which measured z-score value corresponds to CCOC(=O)C[C@H]1[C@H](OC(=O)Cc2ccc3c(c2)OCO3)[C@@H](NC(=O)C2CCCCC2)c2cc(OCCCO)ccc2N1C(=O)c1ccccc1 ?
A: -0.215

Q: Look at this compound and give its reported z-score. CN(C)C(=O)[C@]1(Cc2ccccc2CN=[N+]=[N-])N=C(c2ccc(OCCCO)cc2)O[C@@H]1c1ccccc1
A: 0.747

Q: Endpoint output: z-score of C#CCN(Cc1ccccc1Br)[C@H](/C=C/c1ccccc1)[C@@H](O)Cc1ccccc1 . Value?
A: 1.71

Q: Return reported z-score; argument: COC(=O)[C@@H]1N=C(c2ccc(OCCCO)cc2)O[C@@H]1c1ccccc1
A: 1.64

Q: Need z-score, item CC(C)C(CO)N1C(=O)[C@@H]2C3C(=O)OCCC/C=C\[C@H]3OC23C=CCN(c2ccc4ccccc4c2)C(=O)[C@@H]13 (some centres not stated)
A: -0.507

Q: Looking for the measured z-score of N[C@@H](Cc1ccccc1)C(=O)NCc1cn(Cc2ccccc2)nn1 , can you help?
A: 0.68

Q: Which z-score value belongs to CO[C@H]1O[C@H](CO)[C@@H](OC(=O)Nc2ccc3c(c2)OCO3)[C@H](OC(=O)Nc2ccc3c(c2)OCO3)[C@@H]1OC(=O)Nc1ccc2c(c1)OCO2 ?
A: -0.907

Q: Using the record for CC(c1ccccc1)C(O)C1C=CC2C(=O)N(C)C(=O)C2N1Nc1ccccc1 (configuration not stated) , report its z-score.
A: -0.705

Q: Entry CCOC(=O)C1=CC[C@@H](c2ccccc2)N(S(=O)(=O)c2ccc(C)cc2)[C@H]1c1ccccc1 has what z-score?
A: -0.356
